molecular target: HIV integrase (Human immunodeficiency virus type 1 group M subtype B); experiment: integrase strand transfer assay (STA); type: biochemical; details: STA (IC50, μM), integrase strand-transfer assay, Example 269
Exercise: for every item that follows, state its recorded log10(IC50).
Hello, just confirming the data are log10 of IC50 with units of µM.

Please look up its log10(IC50): `C[C@H](Nc1cc(=O)n(O)c2ncccc12)c1ccccc1`
-0.18

Param item = `O=c1cc(NCc2cccc(N3CCOCC3)n2)c2cccnc2n1O` ; retrieve measured log10(IC50).
0.28

I'd like to know its log10(IC50). The compound in question is O=c1cc(NC2CCc3ccccc32)c2cccnc2n1O (stereo not shown)
-0.44

Which log10(IC50) value is on record for `CCOC(=O)c1c(O)c2c(-c3ccccc3)ccnc2n(O)c1=O` ?
-0.62

Look up log10(IC50): `O=c1cc(Nc2ccc(-c3ccccc3)cc2)c2cccnc2n1O`
-0.66

// log10(IC50) lookup, key: `COc1ccc(CNc2cc(=O)n(O)c3ncccc23)cc1`
-0.66

Looking for the measured log10(IC50) of `CNC(=O)c1c(O)c2cccnc2n(O)c1=O` , can you help?
-0.26

Recorded log10(IC50) for `O=c1c(-c2ccccn2)c(O)c2cccnc2n1O` , please?
-1.22

# lookup: log10(IC50) of `O=c1cc(Cc2ccc(CCc3ccc(F)cc3F)cc2)c2cccnc2n1O`
-1.30

Entry `O=c1cc(NCc2cccc(CN3CCOCC3)c2)c2cccnc2n1O` : reported log10(IC50) = ?
-0.64
